compounds and their reported inhibition index
- SYSTEM_NAME: Bovine insulin (Bos taurus, UniProt P01317)
- Construct: purchased Sigma, St. Louis, Mo., USA
- Sequence (P01317 25-54 limits assumed): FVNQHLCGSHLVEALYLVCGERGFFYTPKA
- Sequence (P01317 85-105 limits assumed): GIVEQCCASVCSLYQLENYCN
- METHOD: Insulin aggregation (turbidity at 360 nm) induced by DTT
- Type: biochemical
- CONDITION: Insulin 0.25 mg/mL, 25° C., DTT; compound 100×; standard deviation in parenthesis

{"COMPOUND": "NCCCCCN", "inhibition index": "1.5 (0.6)"}
{"COMPOUND": "NCCN", "inhibition index": "0.9 (0.3)"}
{"COMPOUND": "NCCCCCCC(=O)O [7-aminoheptanoate, 7-aminoheptanoic acid]", "inhibition index": "2.4 (1.0)"}
{"COMPOUND": "O=C(O)C(=O)O [oxalate, oxalic acid]", "inhibition index": "0.9 (0.6)^3"}

====

- SYSTEM_NAME: porcine heart citrate synthase (CS) (Sus scrofa, UniProt P00889)
- Construct: porcine heart citrate synthase (CS); from tissue; host or cells: porcine heart
- Sequence (P00889 28-464): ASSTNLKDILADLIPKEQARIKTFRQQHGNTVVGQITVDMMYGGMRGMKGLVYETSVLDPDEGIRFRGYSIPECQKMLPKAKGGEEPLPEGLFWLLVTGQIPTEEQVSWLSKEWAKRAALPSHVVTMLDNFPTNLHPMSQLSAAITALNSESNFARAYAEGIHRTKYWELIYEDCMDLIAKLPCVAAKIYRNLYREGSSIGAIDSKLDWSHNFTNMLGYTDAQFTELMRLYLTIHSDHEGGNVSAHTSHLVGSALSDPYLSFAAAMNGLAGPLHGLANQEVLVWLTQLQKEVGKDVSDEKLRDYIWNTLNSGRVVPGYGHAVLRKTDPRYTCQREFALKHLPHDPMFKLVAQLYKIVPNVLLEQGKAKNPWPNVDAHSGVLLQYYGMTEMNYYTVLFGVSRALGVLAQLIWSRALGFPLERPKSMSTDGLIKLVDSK
- METHOD: Citrate synthase thermal aggregation (turbidity at 360 nm)
- Type: biochemical
- CONDITION: CS 96 μg/mL, 45° C.; compound 50,000X; standard deviation in parenthesis
Residues, ends and D or L forms follow the SMILES beside them.
MEASURED_PROPERTY: inhibition index

{"MOLECULE": "NCCC(=O)O [beta-alanine]", "SYSTEM_NAME": "porcine heart citrate synthase (CS) (Sus scrofa, UniProt P00889)", "ASSAY_VALUE": "1.9 (0.8)"}
{"MOLECULE": "NCCCC(=O)O [4-aminobuytrate, 4-aminobutyric acid]", "SYSTEM_NAME": "porcine heart citrate synthase (CS) (Sus scrofa, UniProt P00889)", "ASSAY_VALUE": "1.2 (0.4)"}
{"MOLECULE": "NCC(=O)NCC(=O)NCC(=O)O [triglycine] (H-Gly-Gly-Gly-OH)", "SYSTEM_NAME": "porcine heart citrate synthase (CS) (Sus scrofa, UniProt P00889)", "ASSAY_VALUE": 1.0}
{"MOLECULE": "NCCN [ethylenediamine]", "SYSTEM_NAME": "porcine heart citrate synthase (CS) (Sus scrofa, UniProt P00889)", "ASSAY_VALUE": 18.5}
{"MOLECULE": "O=C(O)CCC(=O)O [succinate, succinic acid]", "SYSTEM_NAME": "porcine heart citrate synthase (CS) (Sus scrofa, UniProt P00889)", "ASSAY_VALUE": 9.6}
{"MOLECULE": "NCCCCCN [1,5-diaminopentane]", "SYSTEM_NAME": "porcine heart citrate synthase (CS) (Sus scrofa, UniProt P00889)", "ASSAY_VALUE": "8.3 (4.5)"}
{"MOLECULE": "NCCCCCCC(=O)O [7-aminoheptanoate, 7-aminoheptanoic acid]", "SYSTEM_NAME": "porcine heart citrate synthase (CS) (Sus scrofa, UniProt P00889)", "ASSAY_VALUE": "1.7 (0.4)"}
{"MOLECULE": "O=C(O)CCCC(=O)O [glutarate, glutaric acid]", "SYSTEM_NAME": "porcine heart citrate synthase (CS) (Sus scrofa, UniProt P00889)", "ASSAY_VALUE": "6.5 (0.3)"}
{"MOLECULE": "NCCCCCCN [1,6-diaminohexane]", "SYSTEM_NAME": "porcine heart citrate synthase (CS) (Sus scrofa, UniProt P00889)", "ASSAY_VALUE": "4.8 (1.5)"}
{"MOLECULE": "O=C(O)CCCCC(=O)O [adipate, adipic acid]", "SYSTEM_NAME": "porcine heart citrate synthase (CS) (Sus scrofa, UniProt P00889)", "ASSAY_VALUE": "19.6 (17.1)"}
{"MOLECULE": "O=C(O)CCCCCCC(=O)O [suberate, suberic acid]", "SYSTEM_NAME": "porcine heart citrate synthase (CS) (Sus scrofa, UniProt P00889)", "ASSAY_VALUE": "14.1 (2.1)"}
{"MOLECULE": "N.O=CO [ammonium formate]", "SYSTEM_NAME": "porcine heart citrate synthase (CS) (Sus scrofa, UniProt P00889)", "ASSAY_VALUE": "1.2 (0.3)"}
{"MOLECULE": "NCCCN [1,3-diaminopropane]", "SYSTEM_NAME": "porcine heart citrate synthase (CS) (Sus scrofa, UniProt P00889)", "ASSAY_VALUE": 7.7}
{"MOLECULE": "NCCCCCC(=O)O [6-aminocaproate, 6-aminocaproic acid]", "SYSTEM_NAME": "porcine heart citrate synthase (CS) (Sus scrofa, UniProt P00889)", "ASSAY_VALUE": "1.5 (0.8)"}
{"MOLECULE": "NCCCCC(=O)O [5-aminovalerate, 5-aminovaleric acid]", "SYSTEM_NAME": "porcine heart citrate synthase (CS) (Sus scrofa, UniProt P00889)", "ASSAY_VALUE": "1.9 (0.7)"}
{"MOLECULE": "O=C([O-])CC(=O)[O-].[Na+].[Na+] [malonate, sodium malonate]", "SYSTEM_NAME": "porcine heart citrate synthase (CS) (Sus scrofa, UniProt P00889)", "ASSAY_VALUE": 9}
